Reference source for all entries: ChEMBL document CHEMBL4118117

target_or_system: Peroxisome proliferator-activated receptor gamma (Homo sapiens)
Sequence (P37231 whole entry, the tested form may be a part): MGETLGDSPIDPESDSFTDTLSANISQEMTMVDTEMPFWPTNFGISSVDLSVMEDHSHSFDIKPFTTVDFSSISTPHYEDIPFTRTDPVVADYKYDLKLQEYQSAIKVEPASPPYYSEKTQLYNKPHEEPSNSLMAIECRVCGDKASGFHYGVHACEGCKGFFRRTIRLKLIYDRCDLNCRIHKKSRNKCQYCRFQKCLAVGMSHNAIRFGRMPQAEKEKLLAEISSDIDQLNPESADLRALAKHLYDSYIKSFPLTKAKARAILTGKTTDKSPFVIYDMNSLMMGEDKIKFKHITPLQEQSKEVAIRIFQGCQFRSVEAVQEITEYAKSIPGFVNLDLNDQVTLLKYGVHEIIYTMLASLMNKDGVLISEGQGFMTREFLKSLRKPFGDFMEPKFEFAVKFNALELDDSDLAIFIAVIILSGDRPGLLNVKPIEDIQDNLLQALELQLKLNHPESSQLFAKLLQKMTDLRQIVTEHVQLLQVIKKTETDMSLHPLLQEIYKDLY
procedure_summary: Transactivation of recombinant human N-terminal GAL4-DBD fused PPARgamma LBD expressed in reporter cells measured after 24 hrs by luciferase reporter gene assay
pEC50: −log10 of the molar value.
Measured pEC50 by item
value_kind: pEC50

| compound | value_kind | assay_result |
| --- | --- | --- |
| O=C1NC(=O)C(Cc2ccc(OCCn3cnc4ccccc43)cc2)S1 (stereo not drawn) | pEC50 | 5.63 |
| O=C1NC(=O)C(Cc2ccc(OCCn3ccc4ccc(Cl)cc43)cc2)S1 (stereo not drawn) | pEC50 | 5.35 |
| O=C1NC(=O)C(Cc2ccc(OCCn3ccc4ccccc43)cc2)S1 (stereo not drawn) | pEC50 | 5.40 |
